# system-under-test: CDK2/cyclin E (Homo sapiens)
# test-method-notes: CDK subtype selectivity, 33P-ATP radiometric kinase assay
# Type: biochemical
# recorded-conditions: stated jointly for CDK1/2/7/9; read-out: IC50 for inhibiting CDK2
# Excerpt: The mechanism of this method is shown in formula (IV). Data was processed with Prism4 Software (GraphPad), and the curve fitting formula was: Y=Bottom+(Top−Bottom)/(1+10^((Log IC50−X)*HillSlope)); wherein, Y is percent inhibition (%); X is logarithm of concentration of the inhibitor.
pIC50: −log10 of the molar value.
quantity-name: pIC50

For record CCN1CCN(Cc2ccc(Nc3ncc(F)c(-c4cc(F)c5nc6n(c5c4)[C@H](C)CCC6)n3)nc2)CC1 [compound I] the listed pIC50 is < 6.40
